Test: Microcentrifuge dissolution test in MFD solution
Assay type: physicochemical
Conditions: area under the concentration-versus-time curve during the initial ninety minutes, MFD solution
PROPERTY MEASURED: AUC90 (min·µgA/mL)
Please respond with the number in min·µgA/mL and leave the unit unwritten.

Sample O=C1Cc2cc(CCN3CCN(c4nsc5ccccc45)CC3)c(Cl)cc2N1 [Ziprasidone Free Base, ziprasidone] — what was its AUC90? 120

====

Test: Microcentrifuge dissolution test in MFD solution
Assay type: physicochemical
Conditions: maximum dissolved concentration during the initial ninety minutes, MFD solution; hydrochloride monohydrate
Where a name gives a salt, the structure may show the parent alone.
PROPERTY MEASURED: MDC90 (µgA/mL)
Please respond with the number in µgA/mL and leave the unit unwritten.

Sample O=C1Cc2cc(CCN3CCN(c4nsc5ccccc45)CC3)c(Cl)cc2N1 [Ziprasidone hydrochloride monohydrate, ziprasidone hydrochloride monohydrate] — what was its MDC90? 22

====

Test: Microcentrifuge dissolution test in MFD solution
Type: physicochemical
Settings: area under the concentration-versus-time curve during the initial ninety minutes, MFD solution; hydrochloride monohydrate
Where a name gives a salt, the structure may show the parent alone.
PROPERTY MEASURED: AUC90 (min·µgA/mL)
Please respond with the number in min·µgA/mL and leave the unit unwritten.

Sample O=C1Cc2cc(CCN3CCN(c4nsc5ccccc45)CC3)c(Cl)cc2N1 [Ziprasidone hydrochloride monohydrate, ziprasidone hydrochloride monohydrate] — what was its AUC90? 1700
